// values below are reported pIC50
# MEASURED_TARGET: Gamma-secretase
# EXPERIMENT_NOTES: Inhibition of gamma secretase (unknown origin) expressed in HEK293 cells assessed as reduction of A-beta40 levels using C100-FLAG as substrate incubated for 2 hrs by sandwich ELISA
pIC50: −log10 of the molar value.

# COMPOUND, pIC50
rows = [
    ("CC[C@H](C)[C@H](NC(=O)[C@@H](NC(=O)[C@@H](NC(=O)C(C)(C)NC(=O)CNC(=O)[C@@H](NC(=O)OC(C)(C)C)C(C)C)C(C)C)C(C)C)C(=O)NC(C)(C)C(=O)N[C@H](C(=O)N[C@H](C(=O)NC(C)(C)C(=O)N[C@H](C(=O)N[C@@H](Cc1ccccc1)[C@H](O)CN(Cc1ccccc1)C(=O)N[C@@H](CC(C)C)C(=O)N[C@H](C(N)=O)C(C)C)C(C)C)C(C)C)[C@@H](C)O", 8.12),
    ("CC[C@H](C)[C@H](NC(=O)[C@@H](NC(=O)[C@@H](NC(=O)C(C)(C)NC(=O)CNC(=O)[C@@H](NC(=O)OC(C)(C)C)C(C)C)C(C)C)C(C)C)C(=O)NC(C)(C)C(=O)N[C@H](C(=O)N[C@H](C(=O)NC(C)(C)C(=O)NCCC(=O)N[C@H](C(=O)N[C@@H](Cc1ccccc1)[C@H](O)CN(Cc1ccccc1)C(=O)N[C@@H](CC(C)C)C(=O)N[C@H](C(N)=O)C(C)C)C(C)C)C(C)C)[C@@H](C)O", 8.22),
    ("CC[C@H](C)[C@H](NC(=O)[C@@H](NC(=O)[C@@H](NC(=O)C(C)(C)NC(=O)CNC(=O)[C@@H](NC(=O)OC(C)(C)C)C(C)C)C(C)C)C(C)C)C(=O)NC(C)(C)C(=O)N[C@H](C(=O)N[C@H](C(=O)NC(C)(C)C(=O)OC)C(C)C)[C@@H](C)O", 7.46),
    ("CC[C@H](C)C(NC(=O)[C@@H](NC(=O)C(C)(C)NC(=O)[C@@H](NC(=O)[C@H](Cc1ccccc1)NC(=O)C(C)(C)NC(=O)[C@@H](NC(=O)[C@@H](NC(=O)[C@@H](NC(=O)C(C)(C)NC(=O)CNC(=O)[C@@H](NC(=O)OC(C)(C)C)C(C)C)C(C)C)C(C)C)[C@@H](C)CC)C(C)C)C(C)C)C(=O)N[C@H](C(=O)N[C@H](C(=O)N[C@@H](Cc1ccccc1)[C@H](O)CN(Cc1ccccc1)C(=O)N[C@@H](CC(C)C)C(=O)N[C@H](C(N)=O)C(C)C)C(C)C)C(C)C (some centres undefined)", 7.23),
    ("CC[C@H](C)[C@H](NC(=O)[C@@H](NC(=O)[C@@H](NC(=O)C(C)(C)NC(=O)CNC(=O)[C@@H](NC(=O)OC(C)(C)C)C(C)C)C(C)C)C(C)C)C(=O)NC(C)(C)C(=O)N[C@H](C(=O)N[C@H](C(=O)NC(C)(C)C(=O)NCCCCCCCCCCCC(=O)N[C@H](C(=O)N[C@@H](Cc1ccccc1)[C@H](O)CN(Cc1ccccc1)C(=O)N[C@@H](CC(C)C)C(=O)N[C@H](C(N)=O)C(C)C)C(C)C)C(C)C)[C@@H](C)O", 9.06),
    ("CC[C@H](C)[C@H](NC(=O)[C@@H](NC(=O)[C@@H](NC(=O)C(C)(C)NC(=O)CNC(=O)[C@@H](NC(=O)OC(C)(C)C)C(C)C)C(C)C)C(C)C)C(=O)NC(C)(C)C(=O)N[C@H](C(=O)N[C@H](C(=O)NC(C)(C)C(=O)NCCCCCCC(=O)N[C@H](C(=O)N[C@@H](Cc1ccccc1)[C@H](O)CN(Cc1ccccc1)C(=O)N[C@@H](CC(C)C)C(=O)N[C@H](C(N)=O)C(C)C)C(C)C)C(C)C)[C@@H](C)O", 8.82),
    ("CC[C@H](C)[C@H](NC(=O)[C@@H](NC(=O)[C@@H](NC(=O)C(C)(C)NC(=O)CNC(=O)[C@@H](NC(=O)OC(C)(C)C)C(C)C)C(C)C)C(C)C)C(=O)NC(C)(C)C(=O)N[C@H](C(=O)N[C@H](C(=O)NC(C)(C)C(=O)NCCCCC(=O)N[C@H](C(=O)N[C@@H](Cc1ccccc1)[C@H](O)CN(Cc1ccccc1)C(=O)N[C@@H](CC(C)C)C(=O)N[C@H](C(N)=O)C(C)C)C(C)C)C(C)C)[C@@H](C)O", 8.49),
    ("CC[C@H](C)[C@H](NC(=O)[C@@H](NC(=O)[C@@H](NC(=O)C(C)(C)NC(=O)CNC(=O)[C@@H](NC(=O)OC(C)(C)C)C(C)C)C(C)C)C(C)C)C(=O)NC(C)(C)C(=O)N[C@H](C(=O)N[C@H](C(=O)NC(C)(C)C(=O)NCCCCCCCCC(=O)N[C@H](C(=O)N[C@@H](Cc1ccccc1)[C@H](O)CN(Cc1ccccc1)C(=O)N[C@@H](CC(C)C)C(=O)N[C@H](C(N)=O)C(C)C)C(C)C)C(C)C)[C@@H](C)O", 8.96),
    ("CC[C@H](C)[C@H](NC(=O)[C@@H](NC(=O)[C@@H](NC(=O)C(C)(C)NC(=O)CNC(=O)[C@@H](NC(=O)OC(C)(C)C)C(C)C)C(C)C)C(C)C)C(=O)NC(C)(C)C(=O)N[C@H](C(=O)N[C@H](C(=O)NC(C)(C)C(=O)NCCCCCCCCCCC(=O)N[C@H](C(=O)N[C@@H](Cc1ccccc1)[C@H](O)CN(Cc1ccccc1)C(=O)N[C@@H](CC(C)C)C(=O)N[C@H](C(N)=O)C(C)C)C(C)C)C(C)C)[C@@H](C)O", 9.15),
]
